- Test Name: Pharmacokinetic study in rats (IV and PO)
- Assay type: in vivo
- Experimental Conditions: male, Sprague-Dawley, plasma; rat, PO, 5 mg/kg; read-out: time at the maximum of concentration (Tmax)
Value Type: Tmax (min)
Write the number in min without appending the unit.

Given item COc1c(N2C[C@H](C)C[C@H](N)C2)ccc2c(=O)c(C(=O)O)cn(C3CC3)c12 , the value recorded as its Tmax is 15

* * *

- Test Name: Pharmacokinetic study in rats (IV and PO)
- Type: in vivo
- Experimental Conditions: male, Sprague-Dawley, plasma; rat, PO, 5 mg/kg; read-out: terminal half-life (t1/2) (converted)
Value Type: half-life (h)
Write the number in h without appending the unit.

Given item COc1c(N2C[C@H](C)C[C@H](N)C2)ccc2c(=O)c(C(=O)O)cn(C3CC3)c12 , the value recorded as its half-life is 3.58

* * *

- Test Name: Pharmacokinetic study in rats (IV and PO)
- Type: in vivo
- Experimental Conditions: male, Sprague-Dawley, plasma; rat, PO, 5 mg/kg; read-out: maximum of concentration (Cmax)
Value Type: Cmax (ng/mL)
Write the number in ng/mL without appending the unit.

Given item COc1c(N2C[C@H](C)C[C@H](N)C2)ccc2c(=O)c(C(=O)O)cn(C3CC3)c12 , the value recorded as its Cmax is 622
